Threshold rule: melting point greater than or equal to 200 °C is 1 (yes); below that, 0 (no).

Consider the worked cases shown below.
INSERT INTO results (compound, category_label) VALUES
  ('C[C@H]1CN(c2ccc(Cl)c(Cl)c2)C(=O)c2c(NC(=O)c3ccccn3)cnn21', '0 (no)'),
  ('Cc1cc(C(=O)Nc2cnn3c2C(=O)N(c2ccc(C(F)(F)F)c(Cl)c2)C[C@@H]3C)nc(N)n1', '1 (yes)'),
  ('C[C@H]1CN(c2ccc(C(F)(F)F)cc2)C(=O)c2c(NC(=O)c3cn[nH]c3)cnn21', '1 (yes)'),
  ('C[C@H]1CN(c2ccc(C(F)(F)F)cc2)C(=O)c2c(NC(=O)c3ccc(F)cn3)cnn21', '1 (yes)');

Input line: Answer whether melting point of "Cc1c(F)cncc1C(=O)Nc1cnn2c1C(=O)N(c1ccc(C(F)(F)F)c(Cl)c1)C[C@@H]2C" is greater than or equal to 200 °C.
Output line: 0 (no)

Input line: Kindly determine if melting point recorded for "COc1cncc(C(=O)Nc2cnn3c2C(=O)N(c2ccc(C(F)(F)F)c(OC)c2)C[C@@H]3C)c1" is above or exactly 200 °C.
Output line: 0 (no)

Input line: Has C[C@H]1CN(c2ccc(C(F)(F)F)c(F)c2)C(=O)c2c(NC(=O)c3cccnc3)cnn21 [Co. No. 126] a recorded melting point greater than or equal to 200 °C?
Output line: 1 (yes)
